- target under test: Polyunsaturated fatty acid lipoxygenase ALOX15 (Homo sapiens)
- Sequence (whole entry): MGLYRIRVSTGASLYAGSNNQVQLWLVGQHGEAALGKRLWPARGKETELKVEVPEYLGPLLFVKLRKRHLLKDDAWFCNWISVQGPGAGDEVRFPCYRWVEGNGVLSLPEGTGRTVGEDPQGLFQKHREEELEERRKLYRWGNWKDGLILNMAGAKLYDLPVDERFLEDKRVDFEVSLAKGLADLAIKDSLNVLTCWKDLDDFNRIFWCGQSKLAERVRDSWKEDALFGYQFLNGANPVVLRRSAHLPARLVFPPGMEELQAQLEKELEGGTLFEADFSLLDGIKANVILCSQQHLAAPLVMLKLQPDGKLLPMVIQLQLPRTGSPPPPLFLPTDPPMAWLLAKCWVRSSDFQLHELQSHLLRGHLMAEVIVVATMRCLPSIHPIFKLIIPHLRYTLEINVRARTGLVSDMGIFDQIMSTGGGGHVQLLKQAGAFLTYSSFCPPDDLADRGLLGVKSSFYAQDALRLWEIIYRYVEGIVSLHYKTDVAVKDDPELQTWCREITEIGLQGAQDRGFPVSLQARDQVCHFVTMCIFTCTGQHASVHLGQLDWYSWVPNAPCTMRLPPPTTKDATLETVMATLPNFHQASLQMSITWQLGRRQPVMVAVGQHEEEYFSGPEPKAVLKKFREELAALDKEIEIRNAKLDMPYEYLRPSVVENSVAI
- protocol description: Inhibition of recombinant human 15-LOX-1 expressed in Escherichia coli BL21(DE3) assessed as residual activity at 50 uM using linoleic acid as substrate preincubated for 10 mins followed by substrate addition
parameter measured: Activity (%)

# compound structure, reported value
data = [
    ("Nc1[nH]c(C(=O)c2ccccc2)c(-c2ccc(Cl)cc2Br)c1C(=O)c1cccs1", 91.2),
    ("Nc1[nH]c(C(=O)c2ccccc2)c(-c2ccc(Cl)cc2)c1C(=O)NCCc1c[nH]c2ccccc12", 84.7),
    ("Nc1[nH]c(C(=O)c2ccccc2)c(-c2ccccc2C(F)(F)F)c1C(=O)c1cccs1", 86.4),
    ("COc1ccc(-c2c(C(=O)c3ccccc3)[nH]c(N)c2C(=O)NC2CC2)cc1OC", 90.2),
]

====

- target under test: Polyunsaturated fatty acid lipoxygenase ALOX15 (Homo sapiens) (UniProt P16050)
- protocol description: Inhibition of recombinant human 15-LOX-1 expressed in Escherichia coli BL21(DE3) assessed as residual activity at 50 uM using linoleic acid as substrate preincubated for 10 mins followed by substrate addition
parameter measured: Activity (%)

# compound structure, Activity / %
measured = [
    ("Nc1[nH]c(C(=O)c2ccccc2)c(-c2ccc3ccccc3c2)c1C(=O)NCc1cccc2ccccc12", 98.6),
    ("Nc1[nH]c(C(=O)c2ccccc2)c(-c2ccc(Br)cc2)c1C(=O)NC1CC1", 94.3),
    ("Nc1[nH]c(C(=O)c2ccccc2)c(-c2cccnc2)c1C(=O)NCCc1ccc(Cl)cc1Cl", 99.9),
    ("Nc1[nH]c(C(=O)c2ccccc2)c(-c2ccc(Cl)cc2Cl)c1C(=O)c1ccc(Br)cc1", 88.3),
]

// data source = ChEMBL document CHEMBL4130408
